Measured inhibition at 3.3 µM values are reported for all entries that follow.
Measurement Target: HIV-1 protease (Human immunodeficiency virus type 1 group M subtype B)
Construct: The protease (or proteinase), consisting of only 99 amino acids, is among the smallest enzymes known
Assay Procedure: In vitro HIV protease inhibitory assay (HIV Protease FITC Assay)
Assay type: biochemical
Measurement Parameters: HIV-1 Dose 3.300 uM; read-out: HIV-1 Protease % Inhib
Protocol: The HIV protease screening assay is based on a fluorescently labeled substrate which can be resolved from nonlabeled cleavage product using avidin-polystyrene particles, 0.7-0.9 µm. […] The labeled cleavage product is separated from the unreacted substrate via filtration and is read on the Idexx Screen Machine. The data are analyzed by appropriate computer algorithms to ascertain percent inhibition values.

The cases that follow already have their inhibition at 3.3 µM on record.
CCC(Cc1cccnc1)c1cc(O)c(C(c2ccccc2)C2CC2)c(=O)o1 (stereo not shown)    88.9%
C=CC(C1=C(O)CC(Cc2ccccc2)(c2ccccc2)OC1=O)c1ccccc1 (stereo not shown)    10.4%
CC(C)CC1(CCc2ccccc2)CC(O)=C(C(/C=C/c2ccccc2)c2ccccc2)C(=O)O1 (stereo not shown)    61%

Query: Look up inhibition at 3.3 µM for this compound: CCC(c1cc(O)c(C(c2ccccc2)C2CC2)c(=O)o1)C(O)c1ccccc1 (stereo not shown)
Response: 87.7%

Query: Look up inhibition at 3.3 µM for this compound: O=c1oc(CC(O)c2cccc(Cl)c2)cc(O)c1C(c1ccccc1)C1CC1 (stereo not shown)
Response: 54.1%
